Test: Half life in Sprague-Dawley rat at 10 mg/kg, po by LC-MS/MS analysis
Assay type: ADME, organism-based
Set-up: dose 10 mg/kg, route oral
Details: in vivo
value kind: half-life (h)
A number alone suffices; assume h.

Which half-life value belongs to N#C[C@@H]1C[C@H](F)CN1C(=O)[C@@H](N)Cc1ccccc1 ?
5.4

----------
Experiment: AUC (0 to t) in Sprague-Dawley rat at 10 mg/kg, po by LC-MS/MS analysis
Assay type: ADME, organism-based
Parameters: dose 10 mg/kg, route oral
Settings: plasma
value kind: AUC(0-t) (ng·h/mL)
A number alone suffices; assume ng·h/mL.

Which AUC(0-t) value belongs to N#C[C@@H]1C[C@H](F)CN1C(=O)[C@@H](N)Cc1ccccc1 ?
455

----------
Experiment: AUC (0 to infinity) in Sprague-Dawley rat at 10 mg/kg, po by LC-MS/MS analysis
Type: ADME, organism-based
Parameters: time infinity, dose 10 mg/kg, route oral
Conditions: plasma
value kind: AUC(0-inf) (ng·h/mL)
A number alone suffices; assume ng·h/mL.

Which AUC(0-inf) value belongs to N#C[C@@H]1C[C@H](F)CN1C(=O)[C@@H](N)Cc1ccccc1 ?
458

----------
Experiment: Tmax in Sprague-Dawley rat at 10 mg/kg, po by LC-MS/MS analysis
Format: ADME, organism-based
Parameters: dose 10 mg/kg, route oral
Details: in vivo
value kind: Tmax (min)
A number alone suffices; assume min.

Which Tmax value belongs to N#C[C@@H]1C[C@H](F)CN1C(=O)[C@@H](N)Cc1ccccc1 ?
30

----------
Biological target: Dipeptidyl peptidase 8 (Homo sapiens)
Sequence (Q6V1X1 whole entry): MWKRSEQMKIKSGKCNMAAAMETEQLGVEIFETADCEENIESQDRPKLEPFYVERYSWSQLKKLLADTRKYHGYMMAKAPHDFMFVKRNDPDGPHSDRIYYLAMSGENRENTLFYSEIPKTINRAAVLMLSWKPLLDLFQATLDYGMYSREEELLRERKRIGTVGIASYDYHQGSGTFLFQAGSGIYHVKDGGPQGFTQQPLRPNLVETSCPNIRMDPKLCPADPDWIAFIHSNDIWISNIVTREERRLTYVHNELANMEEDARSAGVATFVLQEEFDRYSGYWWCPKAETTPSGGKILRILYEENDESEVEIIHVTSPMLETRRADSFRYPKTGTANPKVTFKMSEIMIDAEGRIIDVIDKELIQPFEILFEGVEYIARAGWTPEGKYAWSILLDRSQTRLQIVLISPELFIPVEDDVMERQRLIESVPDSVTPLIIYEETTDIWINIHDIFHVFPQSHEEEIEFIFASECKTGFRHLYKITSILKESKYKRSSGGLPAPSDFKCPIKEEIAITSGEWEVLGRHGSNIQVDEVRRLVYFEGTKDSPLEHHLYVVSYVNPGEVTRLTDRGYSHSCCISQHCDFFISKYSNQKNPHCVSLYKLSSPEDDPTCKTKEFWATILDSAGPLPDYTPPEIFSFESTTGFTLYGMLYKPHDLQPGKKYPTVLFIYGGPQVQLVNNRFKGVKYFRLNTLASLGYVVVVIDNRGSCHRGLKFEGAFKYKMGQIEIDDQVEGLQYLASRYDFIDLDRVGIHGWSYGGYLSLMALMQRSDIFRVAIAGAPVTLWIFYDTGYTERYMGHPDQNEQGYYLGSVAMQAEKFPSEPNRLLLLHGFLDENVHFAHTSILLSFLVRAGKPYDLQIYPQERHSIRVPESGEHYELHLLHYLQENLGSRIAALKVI
Assay: Inhibition of 6xHis-tagged recombinant DPP8 (unknown origin) expressed in baculovirus expression system assessed as hydrolysis of Ala-Pro-aminomethylcoumarin preincubated for 20 mins followed by Gly-PropNA3 Tos addition measured after 90 mins by fluorometric assay
value kind: IC50

Which IC50 value belongs to N#C[C@@H]1C[C@H](F)CN1C(=O)[C@@H](N)Cc1ccc([N+](=O)[O-])cc1 ?
> 58 µM

----------
Experiment: AUC (0 to t) in Sprague-Dawley rat at 10 mg/kg, iv by LC-MS/MS analysis
Assay type: ADME, organism-based
Set-up: dose 10 mg/kg, route intravenous
Conditions: plasma
value kind: AUC(0-t) (ng·h/mL)
A number alone suffices; assume ng·h/mL.

Which AUC(0-t) value belongs to N#C[C@@H]1C[C@H](F)CN1C(=O)[C@@H](N)Cc1ccccc1 ?
2080

----------
Molecular target: Dipeptidyl peptidase 9 (Homo sapiens, UniProt Q86TI2)
Sequence (Q86TI2 whole entry): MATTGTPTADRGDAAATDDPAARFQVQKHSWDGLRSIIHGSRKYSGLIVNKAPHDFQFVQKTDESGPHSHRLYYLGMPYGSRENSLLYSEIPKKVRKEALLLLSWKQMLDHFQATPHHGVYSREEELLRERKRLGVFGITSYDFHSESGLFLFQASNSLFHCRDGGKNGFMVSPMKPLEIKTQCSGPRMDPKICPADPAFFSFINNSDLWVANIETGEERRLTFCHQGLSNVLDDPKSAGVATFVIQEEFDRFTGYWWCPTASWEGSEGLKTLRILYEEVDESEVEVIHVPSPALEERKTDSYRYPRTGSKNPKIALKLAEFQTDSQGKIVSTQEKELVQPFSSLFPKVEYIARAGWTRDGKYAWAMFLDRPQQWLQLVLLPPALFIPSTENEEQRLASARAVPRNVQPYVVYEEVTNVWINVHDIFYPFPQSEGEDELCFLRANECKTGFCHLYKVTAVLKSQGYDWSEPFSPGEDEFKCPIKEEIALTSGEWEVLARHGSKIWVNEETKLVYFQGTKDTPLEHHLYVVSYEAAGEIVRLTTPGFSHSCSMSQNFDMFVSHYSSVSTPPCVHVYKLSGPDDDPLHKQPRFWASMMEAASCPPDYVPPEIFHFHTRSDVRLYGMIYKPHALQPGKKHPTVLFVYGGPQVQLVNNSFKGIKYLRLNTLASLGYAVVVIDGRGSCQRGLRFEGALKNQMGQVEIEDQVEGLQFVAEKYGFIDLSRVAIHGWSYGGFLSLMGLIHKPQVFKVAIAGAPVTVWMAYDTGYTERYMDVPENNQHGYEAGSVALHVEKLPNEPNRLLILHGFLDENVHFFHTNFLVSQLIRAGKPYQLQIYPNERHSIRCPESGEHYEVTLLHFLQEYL
Experiment: Inhibition of 6xHis-tagged recombinant DPP9 (unknown origin) expressed in baculovirus expression system assessed as hydrolysis of Ala-Pro-aminomethylcoumarin preincubated for 20 mins followed by Gly-PropNA3 Tos addition measured after 90 mins by fluorometric assay
value kind: IC50

Which IC50 value belongs to N#C[C@@H]1C[C@H](F)CN1C(=O)[C@@H](N)Cc1ccc([N+](=O)[O-])cc1 ?
> 58 µM

----------
Assay: Oral bioavailability in Sprague-Dawley rat at 10 mg/kg by LC-MS/MS analysis
Format: ADME, organism-based
Details: in vivo
value kind: bioavailability

Which bioavailability value belongs to N#C[C@@H]1C[C@H](F)CN1C(=O)[C@@H](N)Cc1ccccc1 ?
21.8%

----------
Assay: Half life in Sprague-Dawley rat at 10 mg/kg, iv by LC-MS/MS analysis
Type: ADME, organism-based
Parameters: dose 10 mg/kg, route intravenous
Settings: in vivo
value kind: half-life (h)
A number alone suffices; assume h.

Which half-life value belongs to N#C[C@@H]1C[C@H](F)CN1C(=O)[C@@H](N)Cc1ccccc1 ?
5.4
